# measurement.description: Pharmacokinetic determination in mice (plasma)
# Assay type: in vivo, C57BL/6J mice
# details: male, C57BL/6J, mouse, 5 mg/kg, C57 mice, PO administration, 5 mpk, read-out: Plasma concentration Cmax
# criterion met = Cmax below 6000 ng/mL (exclusive); criterion not met = Cmax at/above 6000 ng/mL

Solved entries:
Bench note: check whether O=C1c2cccnc2CN1c1ccc(N[C@H]2CC[C@H](Nc3ncc(OC(F)F)cn3)C2)nc1 shows Cmax below 6000 ng/mL criterion met

Bench note: check whether Cc1cc2c(cn1)CN(c1ccc(N[C@H]3CC[C@H](Nc4nc5cc(C(F)(F)F)ccn5n4)C3)nc1)C2=O shows Cmax below 6000 ng/mL criterion met

Bench note: check whether O=C1c2ncccc2CN1c1ccc(N[C@H]2CC[C@H](Nc3ncc(C(F)(F)F)cn3)C2)nc1 shows Cmax below 6000 ng/mL criterion not met

Bench note: check whether Cc1ccn2nc(N[C@H]3CC[C@H](Nc4ccc(-n5ccccc5=O)cn4)C3)nc2c1 shows Cmax below 6000 ng/mL criterion met

Bench note: check whether Cc1nccc2c1CN(c1ccc(N[C@H]3CC[C@H](Nc4ncc(OC(F)F)cn4)C3)nc1)C2=O shows Cmax below 6000 ng/mL criterion met

Please examine the following record next.
Bench note: check whether O=C1c2ncc(F)cc2CN1c1ccc(N[C@H]2CC[C@H](Nc3ncc(C(F)(F)F)nn3)C2)nc1 shows Cmax below 6000 ng/mL criterion not met
